Source: PubChem BioAssay

Recorded composite z-score values for a group of compounds are listed next.
Biological target: Follistatin-related protein 3 (Homo sapiens) (UniProt O95633)
Sequence (O95633 whole entry, looked up): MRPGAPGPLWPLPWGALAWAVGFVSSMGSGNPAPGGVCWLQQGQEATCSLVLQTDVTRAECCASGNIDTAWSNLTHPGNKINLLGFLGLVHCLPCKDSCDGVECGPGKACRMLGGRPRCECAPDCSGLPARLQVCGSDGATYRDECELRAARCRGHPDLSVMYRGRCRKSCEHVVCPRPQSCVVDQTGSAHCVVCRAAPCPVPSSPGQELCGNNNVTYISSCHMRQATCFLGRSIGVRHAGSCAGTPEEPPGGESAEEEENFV
Experiment: FSTL3 binders on small-molecule microarrays, primary screen, biochemical, small-molecule microarray, 635 nm fluorescence (AID 1105);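 note: score merges emission near 667 nm and signal to noise per printed spot across three slides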
Settings: FSTL3 binding, higher = more signal

Chem smiles: C[C@@]1([C@@H](NS(=O)(=O)c2cccc3cccnc23)c2ccc(-c3ccccc3)cc2)C[C@H]1C1CCCCC1
composite z-score: 0.49

Chem smiles: COCCCNC(=O)[C@@]1(c2ccc([N+](=O)[O-])cc2)CC(=O)N(C2CCCCC2)[C@@H]1c1ccc(CO)cc1I
composite z-score: 0.102

Chem smiles: C=CC[C@@]1(C(=O)NCCCOC)N=C(c2ccc(OCCCO)cc2)O[C@@H]1c1ccccc1CN=[N+]=[N-]
composite z-score: 1.2

Chem smiles: C=C(C(=O)CC[C@@H](OC(=O)c1ccccc1-c1ccccc1C(=O)O)c1ccc(OCCO)cc1)C(C)C
composite z-score: 1.08
